Entry source: patent US10611750B2

Recorded pIC50 values for a group of compounds are listed next.
ASSAY_SYSTEM: BRD4 Bromodomain 1 (BRD4 BD1) (Homo sapiens)
Construct: 44-168 and BRD4 BD2
METHOD: AlphaScreen binding assay, BRD4 BD1
MEASUREMENT_CONDITIONS: His-tagged BRD4 BD1 50 nM, biotinylated H4 (1-21) K5/8/12/16 tetra-acetylated peptide 50 nM, compounds listed under IC50 range headings
pIC50: −log10 of the molar value.
MEASUREMENT_LABEL: pIC50

>>> print(df.to_string())
                                    compound  readout_value
 0  COC(=O)N1c2ccc(-c3cnn(C4CCNCC4)c3)c(Oc3ccnc(C(F)(F)F)n3)c2CC[C@@H]1C   5.00 to 6.00
 1  COC(=O)N1c2ccc(-c3cnn(C4CC4)c3)c(O[C@@H](F)C(N)=O)c2CC[C@@H]1C         ≤ 5.00
 2  COC(=O)N1c2ccc(-c3cnn(CC(C)(C)O)c3)c(Oc3ncc(C)cn3)c2CC[C@@H]1C   5.00 to 6.00
 3  CC(=O)N1c2ccc(-c3cnn(C4CC4)c3)c(OCC3(CO)COC3)c2CC[C@@H]1C   6.00 to 7.00
 4  COC(=O)N1c2ccc(-c3cnn(C4CC4)c3)c(OCC(C)(C)F)c2CC[C@@H]1C   5.00 to 6.00
 5  CC(=O)N1c2ccc(-c3cnn(C4CC4)c3)c(OCC(F)F)c2CC[C@@H]1C   5.00 to 6.00
 6  COC(=O)N1c2ccc(-c3cnn(C4CC4)c3)c(OC(CF)CF)c2CC[C@@H]1C   5.00 to 6.00
 7  CC(=O)N1c2ccc(-c3cnn(C4CC4)c3)c(Oc3ccccc3)c2CC[C@@H]1C   6.00 to 7.00
 8  CC(=O)N1c2ccc(-c3cnn(C4CC4)c3)c(OCC(F)(F)F)c2CC[C@@H]1C   5.00 to 6.00
 9  CC(=O)N1c2ccc(-c3cnn(C4CC4)c3)c(OC(C)C)c2CC[C@@H]1C   6.00 to 7.00
10  COC(=O)N1c2ccc(-c3cnn(CCS(C)(=O)=O)c3)c(Oc3ncccc3C(F)(F)F)c2CC[C@@H]1C   5.00 to 6.00
11  COC(=O)N1c2ccc(-c3cnn([C@H]4CCNC[C@H]4F)c3)c(Oc3ccc(F)cc3)c2CC[C@@H]1C   6.00 to 7.00
12  COC(=O)N1c2c(F)cc(-c3cnn(C4CC4)c3)c(OC3CCC3)c2CC[C@@H]1C   6.00 to 7.00
13  C[C@H]1CCc2c(ccc(-c3cnn(C4CCNCC4)n3)c2OC2CCC2)N1C(=O)C1CC1   5.00 to 6.00
14  COC(=O)N1c2ccc(-c3cnn(C4CC4)c3)c(OCC(C)(F)F)c2CC[C@@H]1C         ≤ 5.00
15  COC(=O)N1c2ccc(-c3cnn(CC(C)(C)O)c3)c(Oc3ncc(C4CC4)cn3)c2CC[C@@H]1C   5.00 to 6.00
16  COC(=O)N1c2ccc(-c3cnn(C4CC4)c3)c(OCC3CC3(F)F)c2CC[C@@H]1C (stereo partly shown)   6.00 to 7.00
17  CC(=O)N1c2ccc(-c3cnn(CCO)c3)c(OC3CCC3)c2CC[C@@H]1C   6.00 to 7.00
18  COC(=O)N1c2ccc(-c3cnn(C4CCNCC4)c3)c(Oc3ncc(C)cn3)c2CC[C@@H]1C   5.00 to 6.00
19  COC(=O)N1c2ccc(-c3cnn(C4CNC4)c3)c(Oc3ccc(F)cc3F)c2CC[C@@H]1C   6.00 to 7.00
20  CC(=O)N1c2ccc(-c3cnn(C4CCNCC4)c3)c(OCC(=O)N3CCCC3)c2CC[C@@H]1C   6.00 to 7.00
21  COC(=O)N1c2ccc(-c3cnn(C4CCNCC4)c3)c(Oc3ncc(C(F)(F)F)cn3)c2CC[C@@H]1C   5.00 to 6.00
22  COC(=O)N1c2ccc(-c3cnn(C4CCNCC4)c3)c(OCC(=O)N3CCCC3)c2CC[C@@H]1C   6.00 to 7.00
23  CC(=O)N1c2ccc(-c3cnn(C4COC4)c3)c(OC[C@H]3CCNC3)c2CC[C@@H]1C   5.00 to 6.00
24  COC(=O)N1c2ccc(-c3cnn(C4CC4)c3)c(OCS(N)(=O)=O)c2CC[C@@H]1C   5.00 to 6.00
25  COC(=O)N1c2ccc(-c3cnn(C4CC5CNCC5C4)c3)c(OC3CCC3)c2CC[C@@H]1C (stereo partly shown)   6.00 to 7.00
26  Cc1ccc(Oc2c(-c3cnn(C4CCNCC4)c3)ccc3c2CC[C@H](C)N3C(=O)C2CC2)c(C)n1   6.00 to 7.00
27  C[C@H]1CCc2c(ccc(-c3ccn(C4CCNCC4)n3)c2Oc2ccccc2)N1C(=O)C1CC1   6.00 to 7.00
